System: HeLa (Cervical cancer cell line)
test-method-notes: Anti-proliferative assay (Cell Titer-Glo), HeLa
Type: cell-based, human
assay-setup: Homo sapiens, HeLa; Table 1, reference compounds; read-out: IC50 HeLa cells
assay-readout: IC50 (nM)
Reply with just the number (in nM).

q: Item COc1ccc(C[C@H](N)C(=O)N[C@H]2[C@@H](O)[C@H](n3cnc4c(N(C)C)ncnc43)O[C@@H]2CO)cc1 [Puromycin] has what recorded IC50?
a: 619

----------
Form field: IC50 (one value per entry).
System: DU-145 (Prostate cancer cell line)
test-method-notes: Anti-proliferative assay (Cell Titer-Glo), DU-145
Type: cell-based, human
assay-setup: Table 1, reference compounds; read-out: IC50 DU-145 cells
Reply with just the number (in nM).

* O=C(CCCCCCC(=O)Nc1ccccc1)NO | 796

Read the next record carefully.
q: Report IC50 for "CC(/C=C/C(=O)NO)=C\[C@@H](C)C(=O)c1ccc(N(C)C)cc1" tested on DU-145 (Prostate cancer cell line).
a: 539

----------
Test system: HeLa (Cervical cancer cell line)
test-method-notes: Anti-proliferative assay (Cell Titer-Glo), HeLa
Format: cell-based, human
assay-setup: Homo sapiens, HeLa; Table 2, reference compounds section; read-out: HeLa IC50
assay-readout: IC50 (µM)
Reply with just the number (in µM).

q: Item COc1ccc(C[C@H](N)C(=O)N[C@H]2[C@@H](O)[C@H](n3cnc4c(N(C)C)ncnc43)O[C@@H]2CO)cc1 [Puromycin] has what recorded IC50?
a: 0.387

# credit: patent US11072583B2
